Molecular target: PRS enzyme (Homo sapiens, UniProt P07814)
Construct: the portion corresponding to PRS in cDNA of EPRS was subcloned; made in house
Test: PRS enzyme activity inhibition experiment
Format: biochemical
Settings: purified PRS protein subcloned from EPRS cDNA; [3H]proline, 37° C., 5 to 10 minutes, liquid scintillation counter; read-out: PRS IC50
Measured IC50, listed per entry for reference.

Consider the worked cases shown below.
O=C(C[C@H]1NCCC[C@@H]1O)Cn1cnc2c(-c3ccccc3)cccc21 [Example 1]
100 to 500 nM
O=C(C[C@H]1NCCC[C@@H]1O)Cn1c(CO)nc2ccc(-c3cccc(F)c3)cc21 [Example 59]
< 100 nM
O=C(C[C@H]1NCCC[C@@H]1O)Cn1cnc2ccc(-c3cc(Cl)cc(Cl)c3)cc21 [Example 31]
< 100 nM

### Prompt Return reported IC50; argument: O=C(C[C@H]1NCCC[C@@H]1O)Cn1cnc2ccc(-c3cc[nH]n3)cc21 [Example 38]
### Response 100 to 500 nM

### Prompt Report IC50 for O=C(C[C@H]1NCCC[C@@H]1O)Cn1cnc2ccc(-c3cccc(Cl)c3)nc21 [Example 46] please.
### Response < 100 nM

### Prompt Item COc1cccc(-c2ccc3c(ncn3CC(=O)C[C@H]3NCCC[C@@H]3O)c2C)c1 [Example 22] has what recorded IC50?
### Response > 500 nM

### Prompt Query: IC50; subject: O=C(C[C@H]1NCCC[C@@H]1O)Cn1cnc2ccc(-c3cccc(Cl)c3)cc21 [Example 27]
### Response < 100 nM

### Prompt Which IC50 value belongs to O=C(C[C@H]1NCCC[C@@H]1O)Cn1cnc2nc(-c3cccc(Cl)c3)ccc21 [Example 12] ?
### Response > 500 nM

### Prompt Param item = O=C(C[C@H]1NCCC[C@@H]1O)Cn1cnc2ncc(-c3cccc(C(F)(F)F)c3)cc21 [Example 42] ; retrieve measured IC50.
### Response 100 to 500 nM

### Prompt Which IC50 value belongs to O=C(C[C@H]1NCCC[C@@H]1O)Cn1cnc2cccc(-c3ccccc3)c21 [Example 48] ?
### Response 100 to 500 nM

### Prompt Could you share which IC50 value was measured for O=C(C[C@H]1NCCC[C@@H]1O)Cn1cnc2cccc(-c3cccc(C(F)(F)F)c3)c21 [Example 53] ?
### Response > 500 nM

----------
# IC50 per entry
Target: PRS enzyme (Homo sapiens, UniProt P07814)
Construct: the portion corresponding to PRS in cDNA of EPRS was subcloned; made in house
Sequence (P07814 1007-1512 limits assumed): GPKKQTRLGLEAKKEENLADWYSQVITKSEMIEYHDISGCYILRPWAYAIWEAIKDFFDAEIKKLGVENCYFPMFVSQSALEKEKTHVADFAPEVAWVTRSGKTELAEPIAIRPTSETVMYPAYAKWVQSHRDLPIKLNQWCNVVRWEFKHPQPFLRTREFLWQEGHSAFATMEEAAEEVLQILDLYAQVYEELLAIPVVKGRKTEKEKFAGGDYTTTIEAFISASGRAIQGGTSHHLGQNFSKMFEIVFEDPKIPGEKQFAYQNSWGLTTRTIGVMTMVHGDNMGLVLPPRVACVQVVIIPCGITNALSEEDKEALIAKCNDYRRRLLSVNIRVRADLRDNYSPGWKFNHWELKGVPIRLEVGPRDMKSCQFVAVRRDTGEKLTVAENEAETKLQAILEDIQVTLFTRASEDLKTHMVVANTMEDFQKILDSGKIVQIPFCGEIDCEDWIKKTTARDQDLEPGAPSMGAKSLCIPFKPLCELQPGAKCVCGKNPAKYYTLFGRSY
Assay: PRS enzyme activity inhibition experiment
Assay type: biochemical
Settings: purified PRS protein subcloned from EPRS cDNA; [3H]proline, 37° C., 5 to 10 minutes, liquid scintillation counter; read-out: PRS IC50

The examples below pair each entry with its known result.
O=C(C[C@H]1NCCC[C@@H]1O)Cn1c(CO)nc2cc(-c3cccc(F)c3)ccc21
> 0.5 µM
O=C(C[C@H]1NCCC[C@@H]1O)Cn1cnc2cc(-c3cccc(C(F)(F)F)c3)cnc21
> 0.5 µM
O=C(C[C@H]1NCCC[C@@H]1O)Cn1cnc2c(-c3cc(Cl)cc(Cl)c3)nccc21
> 0.5 µM
O=C(C[C@H]1NCCC[C@@H]1O)Cn1cnc2ccc(-c3ccc(F)c(Cl)c3)cc21
< 0.1 µM

# ---- query compound ----
### Prompt Query (compound): O=C(C[C@H]1NCCC[C@@H]1O)Cn1c(CO)nc2ccc(-c3ccc(F)cc3)cc21 ; field requested: IC50
### Response < 0.1 µM
